sequences and their reported apparent KD of MS2 coat protein
# Test system: MS2 coat protein
# assay.comment: apparent KD of MS2 coat protein; designed switch direction (-1 OFF switch, 1 ON switch): -1; higher = weaker reporter binding
# particulars: Eterna round: R95; input ligand: none
property: apparent KD of MS2 coat protein

- sequence.text: "AGUACUAUCACGAAAGUGAUAGUACAAAAUAACAAGUGAACAUGAGGAUCACCCAUGUCCUCAUUUGCUCGUCUUAU [Sensor 3 - 18] (puzzle: Sensor v3, turn-off variant 2)"
  system.under.test: "MS2 coat protein"
  value.observed: "421 nM"
- sequence.text: "AACAAGCUAGGAUAUACAUGAGGAUCACCCAUGUGCGACUGAUGUCCCGUGGUUGAGGGUAGAAGGAGCGAAAG [Qucelexe] (puzzle: Exclusion 3)"
  system.under.test: "MS2 coat protein"
  value.observed: "226 nM"
- sequence.text: "GAUUAUGCGAGCUUUAGGGACAUGAGGAUCACCCAUGUUCGUCUUAUUGGUCUAGGUGCGCUAACAUACCUAAAUCU [JMF 51] (puzzle: Sensor v3, turn-off variant 1)"
  system.under.test: "MS2 coat protein"
  value.observed: "25.4 nM"
- sequence.text: "GGUUGACAUGAGGAUCACCCAUGUGAGGAUAUGCGAGAGAAAAAAGUGAGGAAGAGAUGCAGAAGGCGCUGUCG [salish99-ex1_r3_016] (puzzle: Exclusion 1)"
  system.under.test: "MS2 coat protein"
  value.observed: "121 nM"
- sequence.text: "GAGGCUAAAGGAUAUACAUGAGGAUCACCCAUGUGGAGGAAGGUUAGAUGAGGAGAAGGUAGAAGGUUAGGCGA [JR_Exclu3_Sub093] (puzzle: Exclusion 3)"
  system.under.test: "MS2 coat protein"
  value.observed: "28.6 nM"
- sequence.text: "AUUAUUUAAGUCAGGAUAUCGUAUUUAAUUAAAUACGAGAAGGGACAUGAGGAUCACCCAUGUAAUAAAUUUUA [JMFs Solution 1] (puzzle: Brourd's mod of Exclusion 4)"
  system.under.test: "MS2 coat protein"
  value.observed: "15.9 nM"
- sequence.text: "GGAUCGAGUGUGAGGAUAUGCUGGUCCUUGGAUCAGCAGAAGGCACAUGAGGAUCACCCAUGUGAAGACGGUCC [JL bmx4 3.16] (puzzle: Brourd's mod of Exclusion 4)"
  system.under.test: "MS2 coat protein"
  value.observed: "25.8 nM"
- sequence.text: "GGAAAGCAAGGAUAUACAAGGAGACGAUGGAAAGUAGAGCGACAUGAGGAUCACCCAUGUAGAAGGUGCGAGAG [JR_Exclu2_Sub038] (puzzle: Exclusion 2)"
  system.under.test: "MS2 coat protein"
  value.observed: "34.8 nM"
- sequence.text: "GAGGGACAUGAGGAUCACCCAUGUGAGGAUAUGUGAGAAGGAUUGGAGAGUGAGUGGGACAGAAGGCGCAAGGG [JR_Exclu1_Sub085] (puzzle: Exclusion 1)"
  system.under.test: "MS2 coat protein"
  value.observed: "78 nM"
- sequence.text: "ACGCAACAUGAGGAUCACCCAUGUCAGGAUAUCCGGCGAAAACCCAAGAAGGGAAACCGGAGAAGGGACAAAGG [ChP 04-04-2015 #1] (puzzle: Exclusion 1)"
  system.under.test: "MS2 coat protein"
  value.observed: "189 nM"
- sequence.text: "CAUGAUCUUCGGAUCAUGUACAUGAGGAUCACCCAUGUUACGAGUUGAUUUUCAUACAAGCUUUUUGCUCGUCUUAU [Sensor v3 - Turn-off variant 1 - 27] (puzzle: Sensor v3, turn-off variant 1)"
  system.under.test: "MS2 coat protein"
  value.observed: "240 nM"
